For Factor D (Homo sapiens (Human)), measured IC50 is reported for the entries below.

Worked cases, answers included:
NCc1cccc(-c2cc(COc3ccccc3CC(=O)O)cc3c2cnn3CC2CC2)c1F [Compound 127b] :: < 1 µM
NCc1cccc(-c2cc(COc3ccccc3CC(=O)O)cc3ccoc23)c1O [Compound 248c] :: < 1 µM
NCc1cccc(-c2cc(COc3ccccc3CC(=O)O)cc3sccc23)c1 [Compound 116f] :: < 1 µM

Batch request: IC50 per item, same order as input.
1. CN(Cc1ccccc1CC(=O)O)c1cc(-c2cccc(CN)c2)c2occc2c1 [Compound 378d]
2. NCc1cccc(-c2cc(COc3cc(F)ccc3CC(=O)O)cc3c(C(F)(F)F)coc23)c1 [Compound 486c]
3. N=C(N)c1cccc(-c2cc(COc3ccccc3CC(=O)O)cc3ccoc23)c1 [Compound 85c]
4. Cc1oc2c(-c3cccc(CN)c3)cc(COc3ccccc3CC(=O)O)cc2c1C [Compound 333g]
5. NCc1cc(-c2cc(COc3cc(F)ccc3CC(=O)O)cc3c(C(F)(F)F)coc23)ccn1 [Compound 491b]

**Result**
1: < 1 µM; 2: < 1 µM; 3: < 1 µM; 4: < 1 µM; 5: < 1 µM

Reference for the values: patent US11370774B2
